Every entry's value here was drawn from paper PMC9482650.

- Target Desc: IL16_4, Q14005
- Sequence (Q14005 1229-1329): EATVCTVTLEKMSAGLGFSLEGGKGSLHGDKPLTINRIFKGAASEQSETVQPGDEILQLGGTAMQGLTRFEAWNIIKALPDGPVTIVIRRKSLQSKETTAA
- Assay: holdup assay
- Set-up: key: below the threshold = too weak to quantify, mostly under pKd 3.1 to 4
- Condition Details: plain residues with an end cap or a label only (N-terminal biotin on a linker: ado-ado)
Measurement Type: pKd

{"columns": ["Binder", "Measurement Type", "Numeric Readout"],
 "data": [
  ["GTMFLRETSL [GUCY1A2, P33402]", "pKd", 3.51],
  ["THREVKFTSL [CD46, P15529]", "pKd", 3.88]
]}
